Just for reference, ChEMBL document CHEMBL4359886 is where these values come from.

- protocolDetails: Selectivity index, ratio of CC50 for macrophage-differentiated human THP1 cells to EC50 for Leishmania donovani MHOM/ET/67/HU3 amastigotes harboring luciferase reporter gene infected in macrophage-differentiated human THP1 cells
- Assay type: toxicity
- condition: macrophage-differentiated THP-1 cells, read-out: Ratio CC50/EC50
// reported selectivity ratio for each item listed
resultType: selectivity ratio

molecule	recordedNumber
OC1(Cc2ccc(Cl)cc2)c2cc(Cl)c(Cl)cc2C2=NCCN21 (stereo unspecified)	10.8
CSc1ccc(CC2(O)c3c(Cl)ccc(Cl)c3C3=NCCN32)cc1 (stereo unspecified)	12.7
OC1(Cc2ccccc2Cl)c2c(Cl)ccc(Cl)c2C2=NCCN21 (stereo unspecified)	19.7
OC1(Cc2ccc(Cl)cc2)c2c(Cl)ccc(Cl)c2C2=NCCN21 (stereo unspecified)	26.2
OC1(Cc2ccc(Cl)cc2)c2ccccc2C2=NCCN21 (stereo unspecified)	69.1
CSc1ccc(CC2(O)c3cc(Cl)c(Cl)cc3C3=NCCN32)cc1 (stereo unspecified)	31.1
